- Measured On: PxGSTε3 (Plutella xylostella)
- Sequence (O77409 entry or part of it): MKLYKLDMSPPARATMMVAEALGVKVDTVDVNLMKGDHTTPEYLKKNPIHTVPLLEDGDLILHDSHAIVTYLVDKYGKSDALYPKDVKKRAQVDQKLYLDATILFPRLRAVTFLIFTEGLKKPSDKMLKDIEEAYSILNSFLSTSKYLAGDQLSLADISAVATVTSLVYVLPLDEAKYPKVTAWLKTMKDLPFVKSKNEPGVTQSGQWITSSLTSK
- Run Description: Inhibition of PxGSTε3 recombinant protein
- Format: biochemical
- Protocol Conditions: read-out: 100 μM Inhibition rate %
Endpoint Name: inhibition at 100 µM (%)

Some molecules with known inhibition at 100 µM results, for comparison:
Request: // map O=C(NNC(=O)c1cc(-c2ccccc2)nn1-c1ccccc1)c1cc(=O)[nH]c2ccccc12 [PXG22] to recorded inhibition at 100 µM (system: PxGSTε3 (Plutella xylostella))
Response: 65.8

Request: And what about the molecule COc1ccccc1OCC(=O)NNC(=O)c1cc(-c2ccccc2)nn1-c1ccccc1 [PXG18] ?
Response: -2.47

Request: And what about the molecule COc1cccc(C2(C)NC(=O)N(NC(=O)c3cc(-c4ccccc4)nn3-c3ccccc3)C2=O)c1 (stereo not drawn) [PXG17] ?
Response: 4.43

Request: And what about the molecule CC1(c2ccccc2)NC(=O)N(NC(=O)c2cc(-c3ccccc3)nn2-c2ccccc2)C1=O (stereo not drawn) [PXG12] ?
Response: 10.9

Request: And what about the molecule CC1CCC2(CC1)NC(=O)N(NC(=O)c1cc(-c3ccccc3)nn1-c1ccccc1)C2=O (stereo not drawn) [PXG16] ?
Response: 4.12

Request: And what about the molecule CN(C)S(=O)(=O)c1ccc(C(=O)NNC(=O)c2cc(-c3ccccc3)nn2-c2ccccc2)cc1 [PXG29] ?
Response: 0.03

Request: And what about the molecule CCC1(C)NC(=O)N(NC(=O)c2cc(-c3ccccc3)nn2-c2ccccc2)C1=O (stereo not drawn) [PXG13] ?
Response: 18.4

Request: And what about the molecule O=C(NNC(=O)c1cc(-c2ccc(Cl)cc2)nn1-c1ccccc1)c1cccnc1 [PXG7] ?
Response: 5.93

P = O=C(NNC(=O)c1cc(-c2ccccc2)nn1-c1ccccc1)c1ccccc1 [PXG11]
Q = N#Cc1ccccc1OCC(=O)NNC(=O)c1cc(-c2ccccc2)nn1-c1ccccc1 [PXG23]
Request: From the recorded data, which exceeds the other in inhibition at 100 µM: P or Q ? Indicate your choice by writing its label.
Response: Q

a = O=C(CNc1ccccc1)NNC(=O)c1cc(-c2ccccc2)nn1-c1ccccc1 [PXG3]
b = O=C(NNC(=O)c1cc(-c2ccccc2)nn1-c1ccccc1)c1cc[nH]c(=O)c1 [PXG1]
Request: Identify the entry with the smaller inhibition at 100 µM: a or b . Indicate your choice by writing its label.
Response: a

----------
- Measured On: PxGSTσ2 (Plutella xylostella)
- Sequence (Q6F443 entry or part of it): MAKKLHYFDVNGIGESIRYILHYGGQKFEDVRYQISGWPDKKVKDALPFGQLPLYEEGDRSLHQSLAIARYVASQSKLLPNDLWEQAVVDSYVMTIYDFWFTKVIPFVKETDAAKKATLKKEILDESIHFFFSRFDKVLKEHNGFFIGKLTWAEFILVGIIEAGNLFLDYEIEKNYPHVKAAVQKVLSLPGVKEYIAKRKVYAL
- Run Description: Inhibition of PxGSTσ2 recombinant protein
- Assay type: biochemical
- Protocol Conditions: read-out: 100 μM Inhibition rate %
Endpoint Name: inhibition at 100 µM (%)

Request: // map O=C(NNC(=O)[C@@H]1COc2ccccc2O1)c1cc(-c2ccccc2)nn1-c1ccccc1 to recorded inhibition at 100 µM (system: PxGSTσ2 (Plutella xylostella))
Response: 42.4

Request: And what about the compound N#Cc1ccccc1OCC(=O)NNC(=O)c1cc(-c2ccccc2)nn1-c1ccccc1 ?
Response: 26.9

Request: And what about the compound COc1cccc(C2(C)NC(=O)N(NC(=O)c3cc(-c4ccccc4)nn3-c3ccccc3)C2=O)c1 (stereo not shown) ?
Response: 43.9

Request: And what about the compound CN(C)S(=O)(=O)c1cccc(C(=O)NNC(=O)c2cc(-c3ccccc3)nn2-c2ccccc2)c1 ?
Response: 31.4

----------
- Tested on: Plutella xylostella GSTs
- Run Description: Inhibition of total GSTs enzyme of Plutella xylostella (CDNB method)
- Type: biochemical
- Protocol Conditions: 100 μM
Endpoint Name: 100 μM Inhibition rate % (%)

Request: // map O=C(COc1ccccc1)NNC(=O)c1cc(-c2ccccc2)nn1-c1ccccc1 [PXG5] to recorded 100 μM Inhibition rate % (system: Plutella xylostella GSTs)
Response: 11.58

1 = COc1ccccc1CC(=O)NNC(=O)c1cc(-c2ccccc2)nn1-c1ccccc1 [PXG10]
2 = CC1CCC2(CC1)NC(=O)N(NC(=O)c1cc(-c3ccccc3)nn1-c1ccccc1)C2=O (stereo not drawn) [PXG16]
Request: Identify the entry with the smaller 100 μM Inhibition rate %: 1 or 2 . Indicate your choice by writing its label.
Response: 1

----------
- Measured On: UniProtKB Q6F436
- Run Description: Inhibition of PxGSTσ1 recombinant protein
- Format: biochemical
- Protocol Conditions: read-out: 100 μM Inhibition rate %
Endpoint Name: inhibition at 100 µM (%)

Request: GET /values?readout=inhibition at 100 µM&item= O=C(COc1ccccc1)NNC(=O)c1cc(-c2ccccc2)nn1-c1ccccc1
Response: 35.6

Request: And what about the compound O=C(NNC(=O)c1cc(-c2ccc(Cl)cc2)nn1-c1ccccc1)c1cccnc1 ?
Response: 35.1

Request: And what about the compound CCn1c(C)nc2cc(C(=O)NNC(=O)c3cc(-c4ccccc4)nn3-c3ccccc3)ccc21 ?
Response: 44.9

a = CN(C)S(=O)(=O)c1cccc(C(=O)NNC(=O)c2cc(-c3ccccc3)nn2-c2ccccc2)c1
b = O=C(NNC(=O)c1cc(-c2ccc(Cl)cc2)nn1-c1ccccc1)c1ccccn1
Request: Identify the entry with the smaller inhibition at 100 µM: a or b . Indicate your choice by writing its label.
Response: a

----------
- Measured On: PxGSTσ1 (Plutella xylostella, UniProt Q6F436)
- Sequence (Q6F436 entry or part of it): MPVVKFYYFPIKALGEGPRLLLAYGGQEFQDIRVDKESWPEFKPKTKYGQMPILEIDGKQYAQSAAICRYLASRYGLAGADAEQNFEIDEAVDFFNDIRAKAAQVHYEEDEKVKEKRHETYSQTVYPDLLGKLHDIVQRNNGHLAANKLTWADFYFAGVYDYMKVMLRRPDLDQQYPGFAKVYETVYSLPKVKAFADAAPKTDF
- Run Description: Inhibition of PxGSTσ1 recombinant protein
- Assay type: biochemical
- Protocol Conditions: read-out: 100 μM Inhibition rate %
Endpoint Name: inhibition at 100 µM (%)

Some compounds with known inhibition at 100 µM results, for comparison:
Request: GET /values?readout=inhibition at 100 µM&item= O=C(NNC(=O)C1CCCC1)c1cc(-c2ccccc2)nn1-c1ccccc1
Response: 19.5

Request: And what about the compound O=C(NN1C(=O)NC2(CCCCC2)C1=O)c1cc(-c2ccccc2)nn1-c1ccccc1 ?
Response: 49.1

Request: And what about the compound CC1CCC2(CC1)NC(=O)N(NC(=O)c1cc(-c3ccccc3)nn1-c1ccccc1)C2=O (centres unmarked) ?
Response: 70.5

P = CCC1(C)NC(=O)N(NC(=O)c2cc(-c3ccccc3)nn2-c2ccccc2)C1=O (centres unmarked)
Q = CN(C)S(=O)(=O)c1ccc(C(=O)NNC(=O)c2cc(-c3ccccc3)nn2-c2ccccc2)cc1
Request: From the recorded data, which exceeds the other in inhibition at 100 µM: P or Q ? Indicate your choice by writing its label.
Response: Q

Data origin, for the record: patent US12617771B2
